- Study target: UniProt:O15530
- Method notes: PDK1 kinase assay (coupled PDK1/AKT/FAM-crosstide assay, IMAP fluorescence polarization)
- Assay type: biochemical
- Measurement parameters: inhibition of PDK1 in vitro
Test readout: IC50

Any idea what IC50 was measured for C[C@H](NC(=O)c1cc(C#N)cnc1NCc1ncc(-c2cnc3[nH]ncc3c2)cn1)c1ccc(F)cc1 ?
> 5000 nM

Also need C[C@H](NC(=O)c1cc(C#N)cnc1NCc1ccc(-c2cnc(N)c(C(=O)NC3CC3)n2)cc1)c1ccc(F)cc1 , thanks.
< 100 nM

Also need Nc1ccc(-c2ccc(CNc3ncc(C(F)(F)F)cc3C(=O)NCc3ccc(F)c(F)c3)cc2)cn1 , thanks.
< 100 nM

Also need C[C@H](NC(=O)c1cc(C#N)cnc1NCc1ccc(-c2cnc(NCCCN(C)C)cn2)cc1)c1ccc(F)cc1 , thanks.
> 5000 nM

Also need CNCCCc1nc(-c2ccc(CNc3ncc(C#N)cc3C(=O)N[C@@H](C)c3ccc(F)cc3)cc2)cnc1N , thanks.
< 100 nM

Also need C[C@H](NC(=O)c1cc(C#N)cnc1NCc1ccc(-c2c[nH]c3ncnc(N)c23)cc1F)c1ccc(F)cc1 , thanks.
< 100 nM

Next:
Any idea what IC50 was measured for C[C@H](NC(=O)c1nc(C#N)cnc1NCC1CCC(c2cn(C)c3ncnc(N)c23)CC1)c1ccc(F)c(F)c1 (stereo partly shown) ?
100 to 1000 nM

* * *

Reported IC50 values for the following molecules.
- Study target: PDK1 (Homo sapiens (Human))
- Sequence (O15530 51-359): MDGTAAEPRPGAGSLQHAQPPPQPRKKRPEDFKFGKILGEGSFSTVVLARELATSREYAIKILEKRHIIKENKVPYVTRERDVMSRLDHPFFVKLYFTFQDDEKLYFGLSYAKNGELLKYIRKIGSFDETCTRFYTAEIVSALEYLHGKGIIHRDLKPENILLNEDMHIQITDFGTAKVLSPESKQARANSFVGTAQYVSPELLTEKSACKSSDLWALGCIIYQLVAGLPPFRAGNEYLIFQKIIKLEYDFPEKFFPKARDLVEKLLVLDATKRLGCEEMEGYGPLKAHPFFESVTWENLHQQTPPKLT
- Method notes: PDK1 kinase assay (coupled PDK1/AKT/FAM-crosstide assay, IMAP fluorescence polarization)
- Type: biochemical
- Measurement parameters: inhibition of PDK1 in vitro

Any idea what IC50 was measured for C[C@H](NC(=O)c1cc(C#N)cnc1NCc1ccc(-c2cnc3c(c2)OCCN3)cc1)c1ccc(F)cc1 ?
< 100 nM

Also need Nc1ccc(-c2ccc(CNc3nccc4ncn(Cc5ccc(F)c(F)c5)c(=O)c34)cc2)cn1 , thanks.
< 100 nM

Also need C[C@H](NC(=O)c1cc(C#N)cnc1NCc1ccc(-c2ccc(N)nc2)nc1)c1ccc(F)cc1 , thanks.
< 100 nM

Also need C[C@H](NC(=O)c1cc(C#N)cnc1NCc1ccc(-c2cnc(N)c(C(=O)NCCO)n2)cc1)c1ccc(F)cc1 , thanks.
< 100 nM

Also need C[C@H](NC(=O)c1nc(C#N)cnc1NCc1ccc(-c2cnc(N)c(OCCN)n2)cc1)c1ccc(F)c(F)c1 , thanks.
< 100 nM

Also need COc1cc(-c2ccc(CNc3ncc(C#N)cc3C(=O)N[C@@H](C)c3ccc(F)cc3)cc2)cnc1N , thanks.
< 100 nM

Also need C[C@@H](Nc1ncc(C(F)(F)F)cc1C(=O)Nc1ccc(F)cc1)c1ccc(-c2cnc3[nH]nc(N)c3c2)cc1 , thanks.
< 100 nM

* * *

- Test system: phospho-akt (Thr308) in PC-3 cells
- Method notes: Inhibition of phospho-akt (Thr308) in PC-3 cells, MSD phospho-akt 308 ELISA kit
- Type: cell-based
- Measurement parameters: Homo sapiens; inhibition of P308 Akt in PC-3 cells using MSD, 2 hours, no serum; read-out: EC50
pEC50: −log10 of the molar value.
Test readout: pEC50

Any idea what pEC50 was measured for CC(C)c1ccc(NC(=O)c2cc(C(F)(F)F)cnc2NCc2ccc(-c3cnc4[nH]nc(N)c4c3)cc2)cc1 [Example 280] ?
5.00 to 6.00

Next:
Any idea what pEC50 was measured for COCCCn1cc(-c2ccc(CNc3ncc(C#N)nc3C(=O)N[C@@H](C)c3ccc(F)c(F)c3)cc2)c2c(N)ncnc21 [Example 317] ?
> 6.00

Also need C[C@H](NC(=O)c1cc(C(F)(F)F)cnc1NCc1ccc(-c2cnc3[nH]nc(N)c3c2)cc1)c1ccc(Br)cc1 [Example 282] , thanks.
5.00 to 6.00

Also need C[C@H](NC(=O)c1nc(C#N)cnc1NCc1ccc(-c2ccn3ncnc(N)c23)cc1)c1ccc(F)c(F)c1 [Example 175] , thanks.
> 6.00

Also need NCCNc1n[nH]c2ncc(-c3ccc(CNc4ncc(C(F)(F)F)cc4C(=O)Nc4ccc(F)cc4)cc3)cc12 [Example 154] , thanks.
> 6.00

Also need Nc1ncnn2ccc(-c3ccc(CNc4ncc(C(F)(F)F)cc4C(=O)Nc4ccc(F)cc4)cc3)c12 [Example 177] , thanks.
5.00 to 6.00

Also need C[C@H](NC(=O)c1cc(C#N)cnc1NCc1ccc(-c2cnc(N)c(C(=O)N(C)C)n2)cc1)c1ccc(F)cc1 [Example 210] , thanks.
5.00 to 6.00

Also need Cc1nc2cc(-c3ccc(CNc4ncc(C#N)cc4C(=O)N[C@@H](C)c4ccc(F)cc4)cc3)cnc2[nH]1 [Example 138] , thanks.
> 6.00

Also need C[C@H](NC(=O)c1cc(C#N)cnc1NCc1ccc(-c2cnc(N)c(C(N)=O)n2)cc1)c1ccc(F)cc1 [Example 217] , thanks.
> 6.00

Also need O=C(NCc1ccc(F)cc1)c1cccnc1NCc1ccc(-c2cnc3[nH]c(=O)[nH]c3c2)cc1 [Example 360] , thanks.
> 6.00

Also need C[C@H](NC(=O)c1cc(C#N)cnc1NCc1ccc(-c2cnc(N)c(NCC(O)CO)n2)cc1)c1ccc(F)cc1 (stereo partly shown) [Example 243] , thanks.
> 6.00
